experiment_summary: Quantitative High-Throughput drug screen in 47 multiple myeloma cell lines against the NCATS MIPE library collection: OCIMY5_PLB cell viability assay (AID 1918988); also: nearly all actives have a fitted effect of over 65% in size
condition_context: OCI-MY5 myeloma viability, ATP luminescence, 48 h; series mostly up to 45.8 µM
Results filed as inconclusive are left out. Calls of active or inactive are those of the source. Calls follow the shape of the dose curve; as a rule, active = well fitted cell-killing curve with a large enough effect; inconclusive = small, poorly fitted or top-dose-only effect, or effect the other way; inactive = no such curve, though single readings can be large or run the other way.
Respond using exactly one of the listed classes: active, inactive

[[record]]
molecule = "O=S(=O)(CC1CS1)c1ccc(Oc2ccccc2)cc1 (stereo not drawn)"
assigned_label = "active"

[[record]]
molecule = "CC(C)(O)C=CC(=O)[C@](C)(O)[C@H]1[C@H](O)C[C@]2(C)[C@@H]3CC=C4[C@@H](C=C(O)C(=O)C4(C)C)[C@]3(C)C(=O)C[C@@]12C"
assigned_label = "active"

[[record]]
molecule = "C[C@]12Cc3cn[nH]c3C[C@@H]1CC[C@@H]1[C@H]2CC[C@@]2(C)[C@H]1CC[C@]2(C)O"
assigned_label = "active"

[[record]]
molecule = "CC(C)(C)[C@]1(O)C[C@@H]2OC(=O)C[C@@]23C(=O)O[C@@H]2OC(=O)[C@H](O)C213 (stereo partly drawn)"
assigned_label = "inactive"

[[record]]
molecule = "Cc1c(C(=O)c2cccc3ccccc23)c2cccc3c2n1[C@H](CN1CCOCC1)CO3"
assigned_label = "active"


-- ask Outcome logged for `O=C(Oc1ccc([N+](=O)[O-])cc1)N1CCC(C(O)(c2ccc3c(c2)OCO3)c2ccc3c(c2)OCO3)CC1` in this assay:
-- reply inactive

-- ask Outcome logged for `CCOC(=O)Nc1ccc(NCc2ccc(F)cc2)cc1N` in this assay:
-- reply inactive

-- ask Outcome logged for `O=C(Oc1ccc([N+](=O)[O-])cc1)N1CCN(Cc2cccc(Oc3ccccc3)c2)CC1` in this assay:
-- reply inactive

====

experiment_summary: Immunotoxin (SS1P) sensitization/mitigation study. Vehicle arm (DMEM) (AID 1159513)
condition_context: cell viability with vehicle (DMEM); series mostly up to 46.1 µM
Calls of active or inactive are those of the source. How the calls were made is not given here.
Respond using exactly one of the listed classes: active, inactive

-- ask Outcome logged for `CCn1c(-c2nonc2N)nc2cnc(Oc3cccc(NC(=O)c4ccc(OCCN5CCOCC5)cc4)c3)cc21` in this assay:
-- reply active

-- ask Outcome logged for `C[C@@H](O[C@H]1OCCN(Cc2n[nH]c(=O)[nH]2)[C@@H]1c1ccc(F)cc1)c1cc(C(F)(F)F)cc(C(F)(F)F)c1` in this assay:
-- reply active

====

experiment_summary: Quantitative High-Throughput drug screen in 47 multiple myeloma cell lines against the NCATS MIPE library collection: OCIMY1_PLB cell viability assay (AID 1918979); also: nearly all actives have a fitted effect of over 35% in size;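 as to viability: 100% = DMSO-only wells and 0% = cell-free media-only wells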
condition_context: OCI-MY1 myeloma viability, CellTiter-Glo ATP, 48 h; series mostly up to 45.8 µM
Results filed as inconclusive are left out. Active and inactive are the calls of the source. Calls come from the whole dose curve; as a rule, active = well fitted cell-killing curve with a large enough effect; inconclusive = small, poorly fitted or top-dose-only effect, or effect the other way; inactive = no such curve, though single readings can be large or run the other way.
Respond using exactly one of the listed classes: true = active, false = inactive

Here's what some known entries look like.
[[record]]
compound = "O=C1C=CC[C@@H]2[C@H]3CCCN4CCC[C@@H](CN12)[C@@H]34"
assigned_label = "false"

[[record]]
compound = "CO[C@H]1CCC(O[C@H]2C[C@H]([C@]3(C)CC[C@]4(C[C@H](O)[C@@H](C)[C@@H]([C@@H](C)C=C(C)C(=O)[C@H](C)C[C@H](C)C(=O)O)O4)O3)O[C@]3(O[C@@H]([C@H]4O[C@@](O)(CO)[C@H](C)C[C@H]4C)C[C@H]3C)[C@H]2C)O[C@H]1C (stereo partly drawn)"
assigned_label = "true"

[[record]]
compound = "C#C[C@]1(O)C=C[C@@H]2[C@@H]3CCC4=CC(=O)CC[C@@H]4[C@H]3CC[C@@]21CC"
assigned_label = "false"

[[record]]
compound = "C=C[C@@H]1CN2CCC1C[C@H]2[C@H](O)c1ccnc2ccccc12 (stereo partly drawn)"
assigned_label = "false"

[[record]]
compound = "Clc1ccccc1C(c1ccccc1)(c1ccccc1)n1cccn1"
assigned_label = "false"

[[record]]
compound = "CN(C)NC(=O)CCC(=O)O"
assigned_label = "false"


-- ask Outcome logged for `C[C@]12CC[C@H](O)CC1=CC[C@H]1[C@H]3CCC(=O)[C@@]3(C)CC[C@@H]12` in this assay:
-- reply false

-- ask Outcome logged for `COc1ccc(N(C(=O)Oc2c(C)cccc2C)c2ccnc(Nc3ccc(N4CCN(C)CC4)cc3)n2)c(OC)c1` in this assay:
-- reply false

====

subject_of_test: Tyrosine-protein phosphatase non-receptor type substrate 1 (Homo sapiens) + Leukocyte surface antigen CD47 (Homo sapiens) (UniProt P78324+Q08722)
Sequence (P78324 whole entry, looked up): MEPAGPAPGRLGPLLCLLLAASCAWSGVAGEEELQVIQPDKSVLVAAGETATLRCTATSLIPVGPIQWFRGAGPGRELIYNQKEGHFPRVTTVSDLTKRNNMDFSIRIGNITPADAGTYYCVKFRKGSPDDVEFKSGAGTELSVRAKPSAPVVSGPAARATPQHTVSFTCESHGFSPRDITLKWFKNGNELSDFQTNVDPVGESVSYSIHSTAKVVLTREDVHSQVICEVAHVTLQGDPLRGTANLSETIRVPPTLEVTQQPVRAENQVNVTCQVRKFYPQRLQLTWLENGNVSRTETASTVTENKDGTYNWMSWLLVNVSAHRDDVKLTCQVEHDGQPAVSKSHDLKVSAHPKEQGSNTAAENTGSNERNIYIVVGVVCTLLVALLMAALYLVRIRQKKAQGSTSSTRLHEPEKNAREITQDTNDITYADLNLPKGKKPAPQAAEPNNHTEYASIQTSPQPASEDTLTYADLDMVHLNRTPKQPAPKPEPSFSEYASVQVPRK
Sequence (Q08722 whole entry, looked up): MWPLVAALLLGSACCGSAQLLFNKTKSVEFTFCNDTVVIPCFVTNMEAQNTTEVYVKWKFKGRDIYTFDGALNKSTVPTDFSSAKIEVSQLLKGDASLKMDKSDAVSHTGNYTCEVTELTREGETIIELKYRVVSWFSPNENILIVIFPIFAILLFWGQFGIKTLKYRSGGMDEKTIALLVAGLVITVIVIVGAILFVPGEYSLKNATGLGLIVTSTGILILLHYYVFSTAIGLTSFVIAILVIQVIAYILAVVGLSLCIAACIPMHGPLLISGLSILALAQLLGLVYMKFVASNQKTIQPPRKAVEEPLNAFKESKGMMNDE
experiment_summary: CD47-SIRPalpha protein protein interaction - Alpha assay qHTS validation (AID 1347059);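 also: bead proximity luminescence from CD47 binding SIRPalpha after compound preincubation with SIRPalpha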
condition_context: AlphaScreen CD47-His/biotin-SIRPalpha binding, LOPAC; series mostly up to 38.3 µM
Results filed as inconclusive are left out. Activity calls are given as the source filed them. Calls follow the shape of the dose curve; as a rule, active = well fitted inhibition curve with a large enough effect; inconclusive = small, poorly fitted or top-dose-only effect; inactive = flat fitted curve, though single readings scatter.
Respond using exactly one of the listed classes: true (1) (active), false (0) (inactive)

Here's what some known entries look like.
[[record]]
molecule = "NCCc1c[nH]c2ccccc12"
assigned_label = "false (0)"

[[record]]
molecule = "CS(=N)(=O)CC[C@H](N)C(=O)O (some centres not stated)"
assigned_label = "false (0)"

[[record]]
molecule = "O=C1CCCN1CC#CCN1CCCC1"
assigned_label = "false (0)"

[[record]]
molecule = "NCCc1c[nH]c2ccc(O)cc12"
assigned_label = "false (0)"


-- ask Outcome logged for `O=C(O)[C@@H]1CCN1` in this assay:
-- reply false (0)

-- ask Outcome logged for `S=C(NC1CCCCC1)N1CCC(c2cnc[nH]2)CC1` in this assay:
-- reply false (0)

-- ask Outcome logged for `C[C@@H](N)Cc1cnc[nH]1` in this assay:
-- reply false (0)

-- ask Outcome logged for `COc1ccc2c(c[n+](C)c3c4cc5c(cc4ccc23)OCO5)c1OC` in this assay:
-- reply false (0)

-- ask Outcome logged for `CCCCc1ccc(C(=O)O)nc1` in this assay:
-- reply true (1)

-- ask Outcome logged for `Clc1cnc(Oc2ccc(Oc3ncc(Cl)cc3Cl)cc2)c(Cl)c1` in this assay:
-- reply false (0)

-- ask Outcome logged for `COC(=O)[C@@H](N)CCCN=C(N)N[N+](=O)[O-]` in this assay:
-- reply false (0)

-- ask Outcome logged for `O=C(N[C@H]1CN2CCC1CC2)c1ccc(Cl)cc1` in this assay:
-- reply false (0)

-- ask Outcome logged for `Cn1cnc(CCN)c1` in this assay:
-- reply false (0)

-- ask Outcome logged for NC(=O)CN1CC(O)CC1=O (configuration not stated) in this assay:
-- reply false (0)

-- ask Outcome logged for COc1cc(C(O)CN)ccc1O (configuration not stated) in this assay:
-- reply false (0)

====

subject_of_test: Retinoic acid receptor RXR-alpha (Homo sapiens) (UniProt P19793)
Sequence (P19793 whole entry, looked up): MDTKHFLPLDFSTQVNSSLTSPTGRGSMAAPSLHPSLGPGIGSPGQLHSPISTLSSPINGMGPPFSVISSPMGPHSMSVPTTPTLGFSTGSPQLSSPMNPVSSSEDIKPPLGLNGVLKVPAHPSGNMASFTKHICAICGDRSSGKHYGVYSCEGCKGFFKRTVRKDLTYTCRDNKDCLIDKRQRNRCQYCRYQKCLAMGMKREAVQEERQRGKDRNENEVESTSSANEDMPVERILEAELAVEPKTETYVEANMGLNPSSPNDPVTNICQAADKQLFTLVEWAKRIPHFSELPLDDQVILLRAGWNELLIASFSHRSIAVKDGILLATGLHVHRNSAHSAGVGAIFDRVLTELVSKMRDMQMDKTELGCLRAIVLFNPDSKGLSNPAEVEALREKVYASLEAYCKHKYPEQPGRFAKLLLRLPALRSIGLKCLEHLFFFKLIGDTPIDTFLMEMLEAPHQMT
experiment_summary: qHTS assay for small molecule agonists of retinoid X receptor alpha signaling (AID 588544)
condition_context: HEK293T RXRa-UAS-bla, beta-lactamase reporter, 18 h; series mostly up to 76.7 µM
Records with an inconclusive call do not appear. Activity calls are given as the source filed them. Calls follow the shape of the full dose curve.
Respond using exactly one of the listed classes: y for active, n for inactive

[[record]]
compound = "O=S(=O)(c1ccc(Cl)cc1)c1ccc(Cl)cc1"
assigned_label = "n"

[[record]]
compound = "O=C(O)C(Cl)Cl"
assigned_label = "n"

[[record]]
compound = "CC(C)(c1ccc(O)cc1)c1ccc(O)cc1"
assigned_label = "n"

[[record]]
compound = "CC(C)(O)C(=O)Nc1ccc([N+](=O)[O-])c(C(F)(F)F)c1"
assigned_label = "n"

[[record]]
compound = "Nc1ccc(Sc2ccc(N)cc2)cc1"
assigned_label = "n"

[[record]]
compound = "CS(=O)(=O)c1ccc(C(=O)C2C(=O)CCCC2=O)c([N+](=O)[O-])c1"
assigned_label = "y"

[[record]]
compound = "O=S(=O)(O)C(F)(F)C(F)(F)C(F)(F)C(F)(F)C(F)(F)C(F)(F)C(F)(F)C(F)(F)F"
assigned_label = "n"

[[record]]
compound = "COC(C)(C)CCCC(C)C/C=C/C(C)=C/C(=O)OC(C)C (stereo unspecified)"
assigned_label = "n"

[[record]]
compound = "CN(C)[C@@H]1C(=O)C(C(N)=O)=C(O)[C@@]2(O)C(=O)C3=C(O)c4c(O)cccc4[C@@](C)(O)[C@H]3[C@H](O)[C@@H]12"
assigned_label = "n"

[[record]]
compound = "COCCOCCO"
assigned_label = "n"


Now, please, on to the next compound.
-- ask Outcome logged for `O=[N+]([O-])c1c(Cl)c(Cl)cc(Cl)c1Cl` in this assay:
-- reply n

====

experiment_summary: Primary qHTS for inhibitors of nuclear receptor binding SET domain protein 2 (NSD2) in an isogenic RCH-ACV NSD2 p.E1099K mutant (9B) (AID 1645876); also: nearly all actives have a fitted effect of over 70% in size
condition_context: RCH-ACV (leukaemia line) NSD2 E1099K (9B) viability, CellTiter-Glo, 72 h; series mostly up to 44.9 µM
Records with an inconclusive call do not appear. The source made the active and inactive calls. The call rests on the fitted dose curve; in most records, active means well fitted inhibition curve with a large enough effect; inconclusive means small, poorly fitted or top-dose-only effect; inactive means flat fitted curve, though single readings scatter.
Respond using exactly one of the listed classes: active, inactive

Here's what some known entries look like.
[[record]]
structure_string = "O=C(Nc1ccncc1)C(=O)c1cn(Cc2ccc(Cl)cc2)c2ccccc12"
assigned_label = "active"

[[record]]
structure_string = "CSCC[C@@H](NC(=O)[C@@H](Cc1ccccc1)NC(=O)CNC(=O)CNC(=O)[C@@H](N)Cc1ccc(O)cc1)C(=O)O"
assigned_label = "inactive"

[[record]]
structure_string = "C[C@]12CC[C@@H]3[C@@H](CCC4=CC(=O)CC[C@@H]43)[C@@H]1CC[C@@H]2OC(=O)CCc1ccccc1"
assigned_label = "inactive"

[[record]]
structure_string = "O=S(=O)(F)Cc1ccccc1"
assigned_label = "inactive"

[[record]]
structure_string = "CC[N+]1(CCOC(=O)C(O)(c2ccccc2)c2ccccc2)CCCCC1"
assigned_label = "inactive"

[[record]]
structure_string = "Cc1ccc(Cl)c(O)c1"
assigned_label = "inactive"

[[record]]
structure_string = "O=C(N[C@@H](COc1ccc2[nH]c(=O)[nH]c2c1)c1ccccc1)c1cccn(Cc2ccc(F)c(F)c2)c1=O"
assigned_label = "active"

[[record]]
structure_string = "CCCN(CCC)c1c([N+](=O)[O-])cc(S(N)(=O)=O)cc1[N+](=O)[O-]"
assigned_label = "active"


-- ask Outcome logged for `CC(=O)N(C)c1cccc(-c2ccnc3c(C(=O)c4cccs4)cnn23)c1` in this assay:
-- reply inactive

-- ask Outcome logged for `CC(C)Oc1cccc(NC(=O)c2ccccc2C(F)(F)F)c1` in this assay:
-- reply active
